target: T1, human MSLN-FL-his protein (human, UniProt Q13421 296-580); test: competitive ELISA; row F2.39.3; note: test concentration or dose not given here
T1 construct: made in HEK293E cells, purified on nickel column; also called hMSLN-FL-his; human MSLN full-length protein; not shown: His tag
T1 sequence (Q13421 other isoform, or with tags, fused parts or gaps): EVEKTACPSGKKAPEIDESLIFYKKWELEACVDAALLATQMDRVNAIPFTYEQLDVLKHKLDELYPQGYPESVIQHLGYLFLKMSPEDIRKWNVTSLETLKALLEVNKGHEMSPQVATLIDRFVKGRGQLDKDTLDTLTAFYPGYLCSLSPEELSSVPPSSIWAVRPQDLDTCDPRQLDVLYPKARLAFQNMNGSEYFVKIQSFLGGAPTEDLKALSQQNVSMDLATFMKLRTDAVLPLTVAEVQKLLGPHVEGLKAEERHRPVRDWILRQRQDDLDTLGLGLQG
Give competition rate for every item shown.
Numbers only, in %.

{"columns": ["Binder", "Readout units", "competition rate"],
 "data": [
  ["S009-F2.13.3 (antibody, human IgG1, kappa, V domains shown, human-murine chimeric antibody, human IgG1/kappa constant regions) VH: QVQLQQSGAELMKPGASVKLSCKATGYTFTGYWIEWVKQRPGHGLEWIGEILPGSGSTNYNEKFKGKATFTADTSSNTAYMQLSSLTTEDSAIYYCARAGAWFAYWGQGTLVTVSA VL: QIVLTQSPAIMSASLGERVTMTCTASSSVSSSYLHWYQQKPGSSPKLWTYSTSNLASGVPARFSGSGSGTSYSLTISSMEAEDAATYYCHQYHRSPWTFGGGTKLEIKR", "%", 13]
]}

Query binder follows.
So what's the measured competition rate for this one? S009-F2.23.12 (antibody, human IgG1, kappa, V domains shown, human-murine chimeric antibody, human IgG1/kappa constant regions) VH: QVQLQQPGTELVKPGASVKLSCKASGYTFTNYWMHWVKQRPGQGLEWIGNINPSNGGPYYNERFRSKATLTVDKSSSTAYMQLSSLTSEDSAVYYCARPYYGSSYGYFDYWGQGTTLTVSS VL: DIQMTQSPSSLSASLGGKVTITCKASQDINKYIAWYQHKPGKGPRLLIHYTSELQPGIPSRFSGNGSGRDYSFSISNLEPEDIATYYCLQYANPLRTFGGGTKLEIKR
97
